target or test system: recombinant human 5-HT5A receptor (Homo sapiens, UniProt P47898)
Construct: expressed in transfected cells; host or cells: HEK-EBNA (Human Embryonic Kidney-EBNA) cells, transient cDNA expression; membranes
Sequence (P47898 whole entry): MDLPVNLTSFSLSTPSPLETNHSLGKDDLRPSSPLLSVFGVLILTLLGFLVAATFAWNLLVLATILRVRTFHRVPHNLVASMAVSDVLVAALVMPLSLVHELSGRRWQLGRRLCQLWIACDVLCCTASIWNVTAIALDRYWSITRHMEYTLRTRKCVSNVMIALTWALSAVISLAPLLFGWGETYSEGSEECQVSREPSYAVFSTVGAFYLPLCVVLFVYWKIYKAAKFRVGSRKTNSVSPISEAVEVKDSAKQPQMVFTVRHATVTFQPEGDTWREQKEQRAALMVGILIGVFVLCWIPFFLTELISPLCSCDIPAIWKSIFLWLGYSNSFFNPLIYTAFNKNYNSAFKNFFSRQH
procedure details: [3H]LSD radioligand binding assay
measurement context: [3H]LSD (approximately 1 nM); membranes from transiently expressed 5-HT5A receptors in HEK-EBNA cells; Ki from IC50 by Cheng-Prussoff equation
attribute measured: Ki (nM)

Solved entries (count: 8):
> print(dat)
                                   compound                     target.or.test.system  quantitative.readout
1  CN1[C@@H]2CC[C@H]1C[C@H](NC(=O)Nc1ccc3nc(N[C@@H]4CCc5ccccc54)ccc3c1)C2 [Example 101]  recombinant human 5-HT5A receptor (Homo sapiens, UniProt P47898)                   3.7
2  COc1cccc2c1C(Nc1ccc3cc(NC(=O)NC4CCN(CCF)CC4)ccc3n1)CC2 (racemic) [Example 46]  recombinant human 5-HT5A receptor (Homo sapiens, UniProt P47898)                   2.7
3  O=S(=O)(Nc1ccc2nc(N[C@@H]3CCc4ccccc43)ccc2c1)N1CCCC1 [Example 73]  recombinant human 5-HT5A receptor (Homo sapiens, UniProt P47898)                   3.2
4  CC(C)N1C2CCCC1CC(NC(=O)Nc1ccc3nc(NC4CCc5ccccc54)ccc3c1)C2 (stereo not shown) [Example 168]  recombinant human 5-HT5A receptor (Homo sapiens, UniProt P47898)                   7.8
5  O=C(NCC1CC1)Nc1ccc2nc(N[C@@H]3CCc4ccccc43)ccc2c1 [Example 23]  recombinant human 5-HT5A receptor (Homo sapiens, UniProt P47898)                   4.7
6  COCCNC(=O)Nc1ccc2nc(N[C@@H]3CCc4ccccc43)ccc2c1 [Example 17]  recombinant human 5-HT5A receptor (Homo sapiens, UniProt P47898)                     7
7  O=C(Nc1ccc2nc(N[C@@H]3CCc4ccccc43)ccc2c1)NC1CC2CCC1C2 (stereo partly shown) [Example 26]  recombinant human 5-HT5A receptor (Homo sapiens, UniProt P47898)                   4.8
8  CCOc1cccc2c1C(Nc1ccc3cc(NC(=O)NC4CCN(C(C)C)CC4)ccc3n1)CO2 (racemic) [Example 181]  recombinant human 5-HT5A receptor (Homo sapiens, UniProt P47898)                   4.1

P = COc1cccc2c1C(Nc1ccc3cc(NC(=O)NC4CCN(CCC(F)(F)F)CC4)ccc3n1)CC2 (racemic) [Example 47]
Q = CN1CCN(CC(=O)Nc2ccc3nc(N[C@@H]4CCc5ccccc54)ccc3c2)CC1 [Example 210]
Min Ki? P | Q Which one? Tell me its label. P

P = COc1cccc2c1C(Nc1ccc3cc(NC(=O)C4CC4)ccc3n1)CC2 (racemic) [Example 140]
Q = O=C(Nc1ccc2nc(NC3CCc4cc(F)ccc43)ccc2c1)NC1CCN(CCO)CC1 (racemic) [Example 197]
R = CN(C)CCNC(=O)Nc1ccc2nc(N[C@@H]3CCc4ccccc43)ccc2c1 [Example 18]
Thanks in advance: please rank these 3 entries by Ki, highest to lowest. Answer format: the labels, in the requested order. R, Q, P
(R: 7.3 nM, Q: 3.5 nM, P: 2.2 nM)
